- EXPERIMENTAL_PROTOCOL: yeast transport mutant growth inhibition pilot in 384-well plates, post-Golgi transport modulator project (AID 636)
- CONDITIONS_USED: absorbance 615 nm, about 18 h, hits give high values
Peptide text beside a SMILES is read from it. * marks the point of attachment. Boc = CC(C)(C)OC(=O)*
MEASURED_METRIC: inhibition (%)

CC(=O)Nc1ccc(NC(=O)c2ccccc2F)cc1: -1.82
CC(C)(C)OC(=O)N1CCCC1C(=O)N1CCCC1C(=O)N1CCCC1C(=O)O (stereo not drawn) (Boc-Pro-Pro-Pro-OH; configuration not given here): -5.06
COCCN(CC(=O)Nc1ccccc1C)S(=O)(=O)c1ccc(S(=O)(=O)N2CCCC2)cc1: -7.2
O=C(Nc1cc(C(F)(F)F)ccc1Cl)C1CCN(c2nnc(-n3cccc3)s2)CC1: -6
CCOc1ncccc1C(=O)Nc1ccc2c(C)cc(=O)oc2c1: -3.77
O=S1(=O)C=C(Sc2nnc(-c3ccccc3)o2)c2ccccc21: 57
COc1ccc(OC(C)C(=O)N2CCN(c3ccccn3)CC2)cc1 (configuration not stated): -3.95
Cc1ccc(NCc2nnc(SCC(=O)NCc3ccco3)n2CC2CCCO2)cc1Cl (configuration not stated): 5
CCOCCCNC(=O)c1ccc2c(c1)ncn2C1CCCC1: 2.24
CCCN(CCC)CCCNS(=O)(=O)c1ccc2c(c1)oc(=O)n2C: -4.4
C=Cn1c(N2CCOCC2)nc2c1c(=O)[nH]c(=O)n2C: -4.8
CCN(CC)CCCN1C(=O)C(=O)/C(=C(/O)c2ccc(C)cc2)C1c1ccccn1 (configuration not stated): 6.4

====

Below is a list of entries, each paired with its recorded inhibition value.
- EXPERIMENTAL_PROTOCOL: RAM pathway blockade in budding yeast – dse1pr::URA3 reporter, 5-FOA selection, pilot screen (AID 869);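 further: 0% = DMSO wells with no growth and 100% = 10 µM 1-NA-PP1 with full growth; RAM network block rescues cells from 5-FOA so hits raise OD615 growth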
- CONDITIONS_USED: S. cerevisiae dse1pr::URA3 5-FOA growth, OD615, 2 d; at 10 µM; hits give high values; strain carries analog-sensitive mutant Cbk1 kinase
Active and inactive are the calls of the source.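 How the source made its calls: active means inhibition over a set limit, the all-compound mean plus 3 SD, in both replicate runs; inconclusive means over that limit in just one replicate run; inactive means at or under that limit in both runs.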
MEASURED_METRIC: inhibition

O=C(Cn1cc2c(n1)CCCCC2)NCCCN1CCOCC1: 2.08% (inactive)
COC(=O)C1=C(N)N(c2ccc(F)cc2)C2=C(C(=O)CCC2)C1c1ccc2c(c1)OCO2 (stereo unspecified): 3.19% (inactive)
CCC(Sc1nc2c(cnn2-c2ccccc2)c(=O)[nH]1)C(=O)OC (stereo unspecified): 0.65% (inactive)
COc1ccccc1N1CCN(C(=O)c2cc3c(-c4ccc(Cl)cc4)nn(C)c3s2)CC1: 2.8% (inactive)
O=C(c1cnn2ccccc12)N1CCCc2ccccc21: 2.38% (inactive)
CCCCn1c(Oc2ccc(C(=O)OC)cc2)nc2c1c(=O)n(C)c(=O)n2C: 0.085% (inactive)
COc1ccccc1OCCSc1nnnn1-c1ccc(C)cc1: 2.32% (inactive)
COC(=O)c1ccc(CSc2ccc3nnc(-c4cccc(F)c4)n3n2)o1: -0.025% (inactive)
CCOc1ccc(CN2CCNC(=O)C2CC(=O)OC)cc1 (stereo unspecified): 1.59% (inactive)
COCCNc1oc(-c2ccccc2Cl)nc1C#N: 1.51% (inactive)
COc1ccc(Nc2nc(N)nc(CN3CCC(Cc4ccccc4)CC3)n2)cc1: 0.1% (inactive)

====

- EXPERIMENTAL_PROTOCOL: growth suppression of yeast trafficking mutant, preliminary HTS, modulators of trafficking downstream of Golgi apparatus project, 1536-format plate, OD 615 nm (AID 637)
- CONDITIONS_USED: yeast transport mutant growth, absorbance 615 nm, 18 h; hits give high values
MEASURED_METRIC: inhibition (%)

CC1(C)CC(=O)c2cc(OCC(=O)N3CCN(c4ccccc4F)CC3)ccc2O1: 2.06
O=C(Nc1ccc(Cl)c(Cl)c1)Nc1cc(C(=O)N2CCOCC2)ccc1N1CCCCC1: -2.22
CCn1c(Cc2ccccc2)nnc1SCC(=O)Nc1ccc(N2CCOCC2)c(Cl)c1: 3.02
Nc1nc(Cl)nc2c1ncn2[C@@H]1O[C@H](CO)[C@@H](O)[C@H]1O: 1
CCCCNC(=O)OC(C)CNC(=O)Oc1cccc(C)c1 (centres undefined): 3.49
CCN1C(=O)/C(=C/N2CCc3ccccc32)SC1=S: 0.95
O=C(CSc1nnnn1-c1ccccc1)Nc1nsc(-c2ccc(Cl)cc2)n1: 3.33
Cc1onc(-c2c(Cl)cccc2Cl)c1C(=O)NCCCN1CCOCC1: -2.22
O=C1CCCc2c1nn(-c1ccccc1)[n+]2[O-]: -5.4
CSc1cccc(NC(=O)CN(C)S(=O)(=O)c2ccccc2)c1: 1.27
CON(C)c1nc(Oc2ccc(=O)[nH]n2)nc(N(C)C)n1: 4.44
O=c1cc(CSc2nnnn2-c2ccccc2)nc2scc(-c3ccccc3)n12: -7.62
CC(=O)N1CCN(S(=O)(=O)c2ccc(S(=O)(=O)NC3CC3)cc2)CC1: 2.86
O=C(O)C1C2CCC(C2)C1C(=O)NCCCn1ccnc1 (centres undefined): -0.79
O=S1(=O)C=C(Sc2nnc(-c3ccccc3)o2)c2ccccc21: 95.8
Cc1nc2cc(NC(=O)N3CC4(C)CC3CC(C)(C)C4)ccc2n1C (centres undefined): -8.1
COc1ccc(C(F)(F)F)cc1NC(=O)c1nc2nc(C)cc(C(F)F)n2n1: -0.16
COc1ccc(C(=O)Cn2nnc(-c3cccs3)n2)cc1: -3.65
Cc1cc2oc(=O)cc(CN3CCCCC3)c2cc1C(C)C: -2.06
COc1ccc(C2C(C(C)=O)=C(C)N=c3s/c(=C\c4ccc5c(c4)OCO5)c(=O)n32)c(OC)c1 (centres undefined): -4.76
O=C(CCCN1C(=O)c2ccccc2C1=O)NCc1cccnc1: -3.49
CC[C@@H]1C(=O)OC[C@@H]1Cc1cncn1C: -5.5
O=c1c2cn[nH]c2nc(SCc2ccc3c(c2)OCCO3)n1-c1ccccc1: -4.44
NC(=O)SCC(=O)Nc1cccc(Cl)c1: 2.06
CCOC(=O)c1nnn(-c2nonc2NC(C)=O)c1C: -4.13
O=C(C1CCN(S(=O)(=O)c2ccc(-n3cnnn3)cc2)CC1)N1CCN(c2ccccc2)CC1: 0.48
O=C(O)C1CC(=O)N(c2ccc(OCc3c(F)cccc3Cl)cc2)C1 (centres undefined): -1.9
COc1ccc(N2C(=O)CC(N3CCN(S(=O)(=O)c4c(F)cccc4F)CC3)C2=O)cc1OC (centres undefined): -6.35
CSc1n[nH]c(NCc2ccccc2)n1: 1.43
Cc1cccc(NC(=O)c2oc3c(c2C)C(=O)CC(C)(C)C3)n1: -3.49
CCCCCCNC(=O)c1c(N)n(/N=C/c2ccco2)c2nc3ccccc3nc12: -0.16
COC(=O)c1ccccc1NC(=O)c1noc2c1CC(C(C)(C)C)CC2 (centres undefined): 0.63
COC(=O)c1ccc2c(c1)C(=O)N(C1CCCCC1)C2=O: 1.11
Cc1ccc(S(=O)(=O)NCCc2ccncc2)cc1: -0.16

====

- EXPERIMENTAL_PROTOCOL: viability of PTEN-null HCT116 cells – cell-based, HCT116 clonal line, CellTiter-Glo, pilot screen (AID 824);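 further: 0% = 20 µM Hyamine control and 100% = vehicle cell control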
- CONDITIONS_USED: HCT116 PTEN-deleted viability, 60 h, at 10 µM, hits give low values
Inconclusive results are not listed.
Returns: string. Value is 1 if measured viability is below 90%, and 0 if it is greater than or equal to it.

CCOC(=O)c1cc2c(=O)n3ccccc3nc2n(Cc2ccco2)c1=NC(=O)c1cccnc1: 0
COc1ccc(-c2cc(CCCC(=O)NCc3ccccn3)no2)cc1: 0
Cc1ccc(CNC(=O)CS(=O)Cc2nc(-c3ccccc3C)oc2C)cc1 (stereo not given): 0
O=C1C2CCCN2C(c2ccc(F)cc2)N1c1ccc(Cl)cc1 (stereo not given): 1
COC(=O)c1ccc(C)c(NC(=O)CN(c2cc(OC)ccc2OC)S(C)(=O)=O)c1: 1
Cn1c(=O)oc2cc(S(=O)(=O)N3CCC(C(=O)NCC4COc5ccccc5O4)CC3)ccc21 (stereo not given): 0
CCOc1ccccc1C(=O)Nc1ccc2nc(N3CCN(c4ncccn4)CC3)cc(C)c2c1: 1
CCC(C)(C(=O)NC1CCCC1)N(C(=O)CNC(C)=O)c1ccc(C)cc1 (stereo not given): 0
CCN1CCN(CC(=O)Nc2cccc(C)c2)C(=O)C1=O: 0
COc1ccc(OC)c2c1sc(=NC(=O)c1ccco1)n2C: 1
Clc1ccc(Cc2nnc(-c3cccs3)o2)cc1: 0
Cn1c(SCc2ccccc2Cl)nnc1-c1cnccn1: 0
COc1cc(/C=C/C2=NC(=O)C(C)(C)O2)ccc1O: 1
CN(Cc1ccccc1)c1oc(COc2ccccc2F)nc1C#N: 1
CCOc1ccc(NC(=O)C2CSC(c3ccncc3)=N2)cc1 (stereo not given): 0
N#Cc1c(NC(=O)CCCN2C(=O)c3ccccc3C2=O)oc(-c2ccccc2)c1-c1ccccc1: 0
O=C(Cn1cc2c(n1)CCCC2)NCc1ccccn1: 0
CCCCn1c(Oc2ccc(C(=O)OC)cc2)nc2c1c(=O)n(C)c(=O)n2C: 1
Cc1noc(/C=C/N(C)C)c1S(=O)(=O)N1CCCC(C(=O)NCc2ccc(F)cc2)C1 (stereo not given): 1
CCOc1ccc(CN2CCNC(=O)C2CC(=O)OC)cc1 (stereo not given): 0
Cc1ccc(Cl)cc1N1CCN(C(=O)CCS(=O)(=O)c2cccc3nonc23)CC1: 1
O=C(O)CC1C(=O)NCCN1C/C=C/c1ccccc1 (stereo not given): 0
O=C(CCS(=O)(=O)c1cccc2nonc12)N1CCN(c2ccc(F)cc2)CC1: 0
COc1ccccc1OCCSc1nnnn1-c1ccc(C)cc1: 1
O=C(Cn1c(=O)sc2ccccc21)NCc1ccccn1: 0
